assay: Short-term stability in spiked pooled human plasma (bench-top, 4 °C, 56 °C); conditions: validation standard MOV
READOUT_KIND: Short-time stability (24h, RT, with daylight) Accuracy [%] (%)
Give bare numbers, in %.

{"COMPOUND": "Cc1[nH]c2ccccc2c1CCNCc1ccc(/C=C/C(=O)NO)cc1 [Panobinostat]", "READOUT_UNITS": "%", "VALUE_REPORTED": 92.2}
{"COMPOUND": "COc1cc2c(Nc3ccc(Br)cc3F)ncnc2cc1OCC1CCN(C)CC1 [Vandetanib]", "READOUT_UNITS": "%", "VALUE_REPORTED": 95.8}
{"COMPOUND": "CC1(C)CCC(CN2CCN(c3ccc(C(=O)NS(=O)(=O)c4ccc(NCC5CCOCC5)c([N+](=O)[O-])c4)c(Oc4cnc5[nH]ccc5c4)c3)CC2)=C(c2ccc(Cl)cc2)C1 [Venetoclax]", "READOUT_UNITS": "%", "VALUE_REPORTED": 96.8}

Please find the next compound below.
Inquiry: Quick check: Short-time stability (24h, RT, with daylight) Accuracy [%] of COc1cc2nccc(Oc3ccc(NC(=O)NC4CC4)c(Cl)c3)c2cc1C(N)=O [Lenvatinib] ?
Reply text: 93.9

###

assay: Short-term stability in spiked pooled human plasma (bench-top, 4 °C, 56 °C); conditions: validation standard 2xLLOV
Would you mind telling me the reported Short-time stability (1h, 56°C) Accuracy [%] of each entry?
# include the unit after the value

Some solved entries appear below for comparison.
{"SMILES_REPR": "Cc1c(C(=O)Nc2ccc(N3C[C@@H](C)O[C@@H](C)C3)nc2)cccc1-c1ccc(OC(F)(F)F)cc1", "VALUE_REPORTED": "47.0%"}
{"SMILES_REPR": "C#Cc1cccc(Nc2ncnc3cc(OCCOC)c(OCCOC)cc23)c1", "VALUE_REPORTED": "61.0%"}
{"SMILES_REPR": "CC(=O)Nc1cccc(-n2c(=O)n(C3CC3)c(=O)c3c(Nc4ccc(I)cc4F)n(C)c(=O)c(C)c32)c1", "VALUE_REPORTED": "40.7%"}

API: the following record is the query input.
Inquiry: Which value of Short-time stability (1h, 56°C) Accuracy [%] has been reported for O=C(Nc1cnn2ccc(N3CCC[C@@H]3c3cc(F)ccc3F)nc12)N1CC[C@H](O)C1 in the records?
Reply text: 58.9%

###

assay: Long-term stability in spiked pooled human plasma; settings: validation standard LLOV
Doc: threshold 90% (exclusive). Items with Long-term stability, 3 month, -20°C Accuracy [%] beneath it return true; others return false.

{"SMILES_REPR": "CS(=O)(=O)c1ccc(C(=O)Nc2ccc(Cl)c(-c3ccccn3)c2)c(Cl)c1", "LABEL": "true"}

Inquiry: Input CC(C)(C)c1nc(-c2cccc(NS(=O)(=O)c3c(F)cccc3F)c2F)c(-c2ccnc(N)n2)s1 ; condition: Long-term stability, 3 month, -20°C Accuracy [%] strictly below 90%. Does it hold?
Reply text: false

Inquiry: Could you please tell me whether Long-term stability, 3 month, -20°C Accuracy [%] recorded for CN(C)C/C=C/C(=O)Nc1cc2c(Nc3ccc(F)c(Cl)c3)ncnc2cc1O[C@H]1CCOC1 is less than 90%?
Reply text: true

Inquiry: Does this compound meet the criterion Long-term stability, 3 month, -20°C Accuracy [%] < 90%? CC(=O)Nc1cccc(-n2c(=O)n(C3CC3)c(=O)c3c(Nc4ccc(I)cc4F)n(C)c(=O)c(C)c32)c1
Reply text: false

Inquiry: For this compound, is Long-term stability, 3 month, -20°C Accuracy [%] lower than 90%? CC1(C)CCC(CN2CCN(c3ccc(C(=O)NS(=O)(=O)c4ccc(NCC5CCOCC5)c([N+](=O)[O-])c4)c(Oc4cnc5[nH]ccc5c4)c3)CC2)=C(c2ccc(Cl)cc2)C1
Reply text: false

###

test: Long-term stability in spiked pooled human plasma; conditions: validation standard MOV
I'd appreciate it if you could supply Long-term stability, 2 month, -80°C Accuracy [%] values for the items below.
Answers are plain numbers, in %.

Guide cases for Long-term stability, 2 month, -80°C Accuracy [%], answers given:
{"COMPOUND": "CNC(=O)c1cc(Oc2ccc(NC(=O)Nc3ccc(Cl)c(C(F)(F)F)c3)cc2)ccn1", "READOUT_UNITS": "%", "VALUE_REPORTED": 118.4}
{"COMPOUND": "Cc1c(C(=O)Nc2ccc(N3C[C@@H](C)O[C@@H](C)C3)nc2)cccc1-c1ccc(OC(F)(F)F)cc1", "READOUT_UNITS": "%", "VALUE_REPORTED": 119.3}
{"COMPOUND": "CCOc1cc2ncc(C#N)c(Nc3ccc(OCc4ccccn4)c(Cl)c3)c2cc1NC(=O)/C=C/CN(C)C", "READOUT_UNITS": "%", "VALUE_REPORTED": 92.9}
{"COMPOUND": "Cc1cc(Nc2ncc(Cl)c(Nc3ccccc3S(=O)(=O)C(C)C)n2)c(OC(C)C)cc1C1CCNCC1", "READOUT_UNITS": "%", "VALUE_REPORTED": 95.5}
{"COMPOUND": "COC(=O)c1ccc2c(c1)NC(=O)/C2=C(\\Nc1ccc(N(C)C(=O)CN2CCN(C)CC2)cc1)c1ccccc1", "READOUT_UNITS": "%", "VALUE_REPORTED": 99.7}
{"COMPOUND": "Nc1cccc2c1C(=O)N(C1CCC(=O)NC1=O)C2=O (centres unmarked) [Pomalidomide]", "READOUT_UNITS": "%", "VALUE_REPORTED": 99.4}

# batch size: 2; output Long-term stability, 2 month, -80°C Accuracy [%] per entry
1. COc1cc(N2CCC(N3CCN(C)CC3)CC2)ccc1Nc1ncc(Cl)c(Nc2ccccc2P(C)(C)=O)n1
2. CCN(CC)CCNC(=O)c1c(C)[nH]c(/C=C2\C(=O)Nc3ccc(F)cc32)c1C

Reply text:
1: 107.5; 2: 102.8

###

test: Freeze-thaw stability in spiked pooled human plasma; type: physicochemical; conditions: validation standard MOV
Field: Freeze-Thaw Accuracy [%]. Provide a value for each of the compounds that follow.
Numbers only, in %.

{"COMPOUND": "O=C1CN2Cc3c(ccc(Cl)c3Cl)N=C2N1 [Anagrelide]", "Freeze-Thaw Accuracy [%] (%)": 93.8}
{"COMPOUND": "CNC(=O)c1ccccc1Sc1ccc2c(/C=C/c3ccccn3)n[nH]c2c1", "Freeze-Thaw Accuracy [%] (%)": 105.4}
{"COMPOUND": "CCCS(=O)(=O)Nc1ccc(F)c(C(=O)c2c[nH]c3ncc(-c4ccc(Cl)cc4)cc23)c1F", "Freeze-Thaw Accuracy [%] (%)": 97.5}
{"COMPOUND": "C=CC(=O)Nc1cc(Nc2nccc(-c3cn(C)c4ccccc34)n2)c(OC)cc1N(C)CCN(C)C", "Freeze-Thaw Accuracy [%] (%)": 96.2}
{"COMPOUND": "COc1cc(N2CCC(N3CCN(C)CC3)CC2)ccc1Nc1ncc(Cl)c(Nc2ccccc2P(C)(C)=O)n1", "Freeze-Thaw Accuracy [%] (%)": 95.5}

Hi there! I need Freeze-Thaw Accuracy [%] for each item below, if you can.
1. COc1cc(Nc2c(C#N)cnc3cc(OCCCN4CCN(C)CC4)c(OC)cc23)c(Cl)cc1Cl
2. Cc1nc(Nc2ncc(C(=O)Nc3c(C)cccc3Cl)s2)cc(N2CCN(CCO)CC2)n1
3. CNC(=O)c1cc(Oc2ccc(NC(=O)Nc3ccc(Cl)c(C(F)(F)F)c3)cc2)ccn1

Reply text:
1. 92.6
2. 99.1
3. 96.9

###

experiment: Short-term stability in spiked pooled human plasma (bench-top, 4 °C, 56 °C); conditions: validation standard 2xLLOV
Categories are assigned from the measured Short-time stability (1h, 56°C) Accuracy [%] using these intervals: low-valued = under 30%, mid-valued = from 30% up to 50%, high-valued = 50% and over

Answered cases to consult:
{"COMPOUND": "CCC1=C[C@@H]2CN(C1)Cc1c([nH]c3ccccc13)[C@@](C(=O)OC)(c1cc3c(cc1OC)N(C)[C@H]1[C@@](O)(C(=O)OC)[C@H](OC(C)=O)[C@]4(CC)C=CCN5CC[C@]31[C@@H]54)C2 [Vinorelbine]", "LABEL": "mid-valued"}
{"COMPOUND": "CCN(CC)CCNC(=O)c1c(C)[nH]c(/C=C2\\C(=O)Nc3ccc(F)cc32)c1C [Sunitinib]", "LABEL": "high-valued"}
{"COMPOUND": "CNCc1ccc(-c2[nH]c3cc(F)cc4c3c2CCNC4=O)cc1 [Rucaparib]", "LABEL": "high-valued"}
{"COMPOUND": "C[C@H]1Oc2cc(cnc2N)-c2c(nn(C)c2C#N)CN(C)C(=O)c2ccc(F)cc21 [Lorlatinib]", "LABEL": "high-valued"}
{"COMPOUND": "CS(=O)(=O)CCNCc1ccc(-c2ccc3ncnc(Nc4ccc(OCc5cccc(F)c5)c(Cl)c4)c3c2)o1 [Lapatinib]", "LABEL": "low-valued"}
{"COMPOUND": "Cc1[nH]c2ccccc2c1CCNCc1ccc(/C=C/C(=O)NO)cc1 [Panobinostat]", "LABEL": "low-valued"}
{"COMPOUND": "Cc1cn(-c2cc(NC(=O)c3ccc(C)c(Nc4nccc(-c5cccnc5)n4)c3)cc(C(F)(F)F)c2)cn1 [Nilotinib]", "LABEL": "mid-valued"}
{"COMPOUND": "CCN1CCN(Cc2ccc(Nc3ncc(F)c(-c4cc(F)c5nc(C)n(C(C)C)c5c4)n3)nc2)CC1 [Abemaciclib]", "LABEL": "low-valued"}
{"COMPOUND": "Nc1cccc2c1C(=O)N(C1CCC(=O)NC1=O)C2=O (stereo not drawn) [Pomalidomide]", "LABEL": "low-valued"}
{"COMPOUND": "O=c1[nH]c(=O)n([C@H]2C[C@H](O)[C@@H](CO)O2)cc1C(F)(F)F [Trifluridine]", "LABEL": "low-valued"}

Inquiry: Determine which band this compound sits in: CNC(=O)c1cc(Oc2ccc(NC(=O)Nc3ccc(Cl)c(C(F)(F)F)c3)c(F)c2)ccn1 [Regorafenib]
Reply text: mid-valued

Inquiry: Note: place this compound into its band. Item: CC1(C)CCC(CN2CCN(c3ccc(C(=O)NS(=O)(=O)c4ccc(NCC5CCOCC5)c([N+](=O)[O-])c4)c(Oc4cnc5[nH]ccc5c4)c3)CC2)=C(c2ccc(Cl)cc2)C1 [Venetoclax]
Reply text: mid-valued
